Residues, ends and D or L forms follow the SMILES beside them. *: point of attachment. Cbz = O=C(OCc1ccccc1)*
readoutName: melting point

Worked set:
Recorded melting point for `CCc1ncnc(O)c1Br` , please? 175 to 177 °C

Recorded melting point for CN1CCCC(c2nc3cccnc3[nH]2)C1 (centres undefined) , please? 141 to 144 °C

Recorded melting point for `CCCc1c(OCCCC(=O)NCCCc2cccnc2)ccc(C(C)=O)c1O` , please? 97 to 98 °C

Field: next compound
Recorded melting point for COC(=O)C(Cc1c[nH]c2ccccc12)NC(=O)C(CCC(N)=O)NC(=O)OCc1ccccc1 (stereo not drawn) (Cbz-Gln-Trp-OMe; configuration not given here) , please? 197 to 198 °C
